test system: HCT15 (cell lines of human colon adenocarcinoma); assay: Test on cell proliferation (MTT test), HCT15; type: cell-based; conditions: 1 nM, 72 hours
measurement-label: PERCENTAGE OF CELL PROLIFERATION (%)

molecule	measurement-label	uom	recorded-result
CCc1c2c(nc3ccccc13)-c1cc(C(O)(CC)CC(=O)O)c(CO)c(=O)n1C2 (centres unmarked)	PERCENTAGE OF CELL PROLIFERATION	%	87.00
CCc1c2c(nc3ccccc13)-c1cc3c(c(=O)n1C2)COC(=O)CC3(O)CC (centres unmarked)	PERCENTAGE OF CELL PROLIFERATION	%	89.00
CCC(O)(CC(=O)O)c1cc2n(c(=O)c1CO)Cc1cc3ccccc3nc1-2 (centres unmarked)	PERCENTAGE OF CELL PROLIFERATION	%	92.00
CCC1(O)CC(=O)OCc2c1cc1n(c2=O)Cc2cc3cc4c(cc3nc2-1)OCCO4 (centres unmarked)	PERCENTAGE OF CELL PROLIFERATION	%	63.00
CCC1(O)CC(=O)OCc2c1cc1n(c2=O)Cc2cc3ccccc3nc2-1 (centres unmarked)	PERCENTAGE OF CELL PROLIFERATION	%	84.00

###

Test system: LOVO (cell lines of human colon adenocarcinoma)
Test: Test on cell proliferation (MTT test), LOVO
Assay type: cell-based
Conditions: 1 000 nM, 72 hours
Procedure: a. Eight tumoral cell lines are used in this study: L1210 (mouse lymphocytic leukemia), HCT15 and LOVO (cell lines of human colon adenocarcinoma), A549 (human lung carcinoma), A172, U373 et U87 (human glioblastoma). […] Inhibition of the tumor cell line proliferation is determined using an MTT test. […] The results are expressed as percentages of the calculated proliferation by the optical density (OD) of the cells treated with a medicament divided by the OD of the control cells (cells treated with DMSO). […]
# label = T if PERCENTAGE OF CELL PROLIFERATION < 20% else F

molecule	category-label
CCC1(O)CC(=O)OCc2c1cc1n(c2=O)Cc2cc3ccccc3nc2-1 (centres unmarked) [Example 3]	F
CCc1c2c(nc3ccccc13)-c1cc3c(c(=O)n1C2)COC(=O)CC3(O)CC (centres unmarked) [Example 9]	F
CCc1c2c(nc3ccccc13)-c1cc(C(O)(CC)CC(=O)O)c(CO)c(=O)n1C2 (centres unmarked) [Example 10]	F
CCC(O)(CC(=O)O)c1cc2n(c(=O)c1CO)Cc1cc3ccccc3nc1-2 (centres unmarked) [Example 4]	F
CCC1(O)CC(=O)OCc2c1cc1n(c2=O)Cc2cc3cc4c(cc3nc2-1)OCCO4 (centres unmarked) [Example 11]	T

###

Measured PERCENTAGE OF RELAXED DNA of individual entries
Molecular target: DNA topoisomerase 1 of purified calf thymus (Bos taurus)
Construct: DNA topoisomerase 1 of purified calf thymus (Gibco-BRL, Paisley, United Kingdom); purchased Gibco-BRL, Paisley, United Kingdom; host or cells: calf thymus tissue
Sequence (F1MN93 1-767): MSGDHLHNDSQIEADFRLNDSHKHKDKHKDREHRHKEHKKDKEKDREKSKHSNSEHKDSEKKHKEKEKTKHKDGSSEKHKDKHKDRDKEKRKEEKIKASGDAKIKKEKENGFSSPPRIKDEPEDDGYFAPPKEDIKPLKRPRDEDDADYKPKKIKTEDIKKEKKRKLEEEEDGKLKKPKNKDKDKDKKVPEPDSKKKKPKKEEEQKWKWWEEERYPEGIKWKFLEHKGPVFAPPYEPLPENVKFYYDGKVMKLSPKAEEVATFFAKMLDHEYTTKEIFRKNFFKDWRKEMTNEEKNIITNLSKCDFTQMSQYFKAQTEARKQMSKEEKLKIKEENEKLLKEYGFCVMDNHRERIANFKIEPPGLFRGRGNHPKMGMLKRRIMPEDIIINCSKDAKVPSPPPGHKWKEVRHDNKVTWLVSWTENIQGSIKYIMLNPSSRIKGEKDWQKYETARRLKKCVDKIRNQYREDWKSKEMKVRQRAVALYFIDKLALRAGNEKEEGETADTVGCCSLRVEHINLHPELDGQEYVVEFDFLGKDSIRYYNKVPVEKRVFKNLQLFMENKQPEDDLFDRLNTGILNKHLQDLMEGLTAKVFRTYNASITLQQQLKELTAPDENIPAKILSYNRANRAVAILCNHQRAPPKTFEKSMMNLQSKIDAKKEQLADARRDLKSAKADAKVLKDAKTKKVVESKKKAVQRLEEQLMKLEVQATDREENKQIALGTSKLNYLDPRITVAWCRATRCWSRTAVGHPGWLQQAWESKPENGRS
Test: Relaxation activity test of DNA induced by topoisomerase 1
Assay type: biochemical
Details: 10 μM compound; supercoiled pUC19; 15 minutes at 37° C.
measurement-label: PERCENTAGE OF RELAXED DNA (%)

compound	measurement-label	recorded-result
CCC1(O)CC(=O)OCc2c1cc1n(c2=O)Cc2cc3ccccc3nc2-1 (stereo not shown) [Example 3]	PERCENTAGE OF RELAXED DNA	79.9
CCc1c2c(nc3ccccc13)-c1cc(C(O)(CC)CC(=O)O)c(CO)c(=O)n1C2 (stereo not shown) [Example 10]	PERCENTAGE OF RELAXED DNA	96.9
CCN1COc2ccc3nc4c(cc3c2C1)Cn1c-4cc2c(c1=O)COC(=O)CC2(O)CC (stereo not shown) [Example 76]	PERCENTAGE OF RELAXED DNA	79.7
CCC(O)(CC(=O)O)c1cc2n(c(=O)c1CO)Cc1cc3ccccc3nc1-2 (stereo not shown) [Example 4]	PERCENTAGE OF RELAXED DNA	99.1
CCOC(=O)CC(O)(CC)c1cc2n(c(=O)c1CO)Cc1cc3ccccc3nc1-2 (stereo not shown) [Example 2]	PERCENTAGE OF RELAXED DNA	97.9
CCC1(O)CC(=O)OCc2c1cc1n(c2=O)Cc2cc3c4c(c(F)cc3nc2-1)OCN(Cc1ccccc1)C4 (stereo not shown) [Example 79]	PERCENTAGE OF RELAXED DNA	55.6
CCC1(O)CC(=O)OCc2c1cc1n(c2=O)Cc2cc3c4c(ccc3nc2-1)OCN(C)C4 (stereo not shown) [Example 77]	PERCENTAGE OF RELAXED DNA	86.2
CCC1(O)CC(=O)OCc2c1cc1n(c2=O)Cc2cc3c4c(ccc3nc2-1)OCN(Cc1ccccc1)C4 (stereo not shown) [Example 78]	PERCENTAGE OF RELAXED DNA	56.2
CCc1c2c(nc3ccccc13)-c1cc3c(c(=O)n1C2)COC(=O)CC3(O)CC (stereo not shown) [Example 9]	PERCENTAGE OF RELAXED DNA	77.1
CCC1(O)CC(=O)OCc2c1cc1n(c2=O)Cc2cc3cc4c(cc3nc2-1)OCCO4 (stereo not shown) [Example 11]	PERCENTAGE OF RELAXED DNA	65.0

###

test system: A172 (human glioblastoma); test: Test on cell proliferation (MTT test), A172; type: cell-based; details: 100 000 nM, 72 hours

compound	PERCENTAGE OF CELL PROLIFERATION, %
CCc1c2c(nc3ccccc13)-c1cc3c(c(=O)n1C2)COC(=O)CC3(O)CC (centres unmarked) [Example 9]	1.00
CCc1c2c(nc3ccccc13)-c1cc(C(O)(CC)CC(=O)O)c(CO)c(=O)n1C2 (centres unmarked) [Example 10]	3.00
CCC(O)(CC(=O)O)c1cc2n(c(=O)c1CO)Cc1cc3ccccc3nc1-2 (centres unmarked) [Example 4]	10.00
CCC1(O)CC(=O)OCc2c1cc1n(c2=O)Cc2cc3cc4c(cc3nc2-1)OCCO4 (centres unmarked) [Example 11]	2.00
CCC1(O)CC(=O)OCc2c1cc1n(c2=O)Cc2cc3ccccc3nc2-1 (centres unmarked) [Example 3]	7.00

###

Molecular target: DNA topoisomerase 1 of purified calf thymus (Bos taurus, UniProt F1MN93)
Construct: DNA topoisomerase 1 of purified calf thymus (Gibco-BRL, Paisley, United Kingdom); purchased Gibco-BRL, Paisley, United Kingdom; host or cells: calf thymus tissue
Sequence (F1MN93 1-767): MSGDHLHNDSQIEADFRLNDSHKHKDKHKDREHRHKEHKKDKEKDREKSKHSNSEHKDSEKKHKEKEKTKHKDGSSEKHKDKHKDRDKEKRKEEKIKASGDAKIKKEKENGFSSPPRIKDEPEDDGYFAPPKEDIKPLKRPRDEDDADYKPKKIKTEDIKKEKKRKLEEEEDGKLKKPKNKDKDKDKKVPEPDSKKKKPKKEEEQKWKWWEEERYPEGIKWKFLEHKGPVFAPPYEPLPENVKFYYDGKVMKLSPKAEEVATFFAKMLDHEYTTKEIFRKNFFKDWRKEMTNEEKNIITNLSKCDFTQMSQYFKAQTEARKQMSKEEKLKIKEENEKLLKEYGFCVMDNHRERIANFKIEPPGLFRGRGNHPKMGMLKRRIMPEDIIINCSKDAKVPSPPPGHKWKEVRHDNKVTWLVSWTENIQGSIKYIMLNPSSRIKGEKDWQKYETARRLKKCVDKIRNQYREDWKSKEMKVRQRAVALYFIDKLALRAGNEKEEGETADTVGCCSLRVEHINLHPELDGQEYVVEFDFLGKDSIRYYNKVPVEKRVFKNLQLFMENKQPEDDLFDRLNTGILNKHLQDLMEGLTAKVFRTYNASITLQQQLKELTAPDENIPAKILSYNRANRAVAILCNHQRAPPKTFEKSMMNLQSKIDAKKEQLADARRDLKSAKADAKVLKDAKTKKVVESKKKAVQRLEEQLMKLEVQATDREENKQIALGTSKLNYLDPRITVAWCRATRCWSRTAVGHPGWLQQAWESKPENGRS
Experiment: Relaxation activity test of DNA induced by topoisomerase 1
Type: biochemical
Conditions: 100 μM compound; supercoiled pUC19; 15 minutes at 37° C.
measurement-label: PERCENTAGE OF RELAXED DNA

compound	measurement-label	recorded-result
CCc1c2c(nc3ccccc13)-c1cc3c(c(=O)n1C2)COC(=O)CC3(O)CC (stereo not shown) [Example 9]	PERCENTAGE OF RELAXED DNA	33.9%
CCOC(=O)CC(O)(CC)c1cc2n(c(=O)c1CO)Cc1cc3ccccc3nc1-2 (stereo not shown) [Example 2]	PERCENTAGE OF RELAXED DNA	78.3%
CCC1(O)CC(=O)OCc2c1cc1n(c2=O)Cc2cc3c4c(c(F)cc3nc2-1)OCN(Cc1ccccc1)C4 (stereo not shown) [Example 79]	PERCENTAGE OF RELAXED DNA	38.9%
CCC1(O)CC(=O)OCc2c1cc1n(c2=O)Cc2cc3ccccc3nc2-1 (stereo not shown) [Example 3]	PERCENTAGE OF RELAXED DNA	59.9%
